Answer each item with its documented max response.
# EXPERIMENT: Cycloheximide Counterscreen for Small Molecule Inhibitors of Shiga Toxin; note: read at 38.3 µM for the half of the compounds with a filed dose; 0% is about no effect
# RUN CONDITIONS: cell reporter, cycloheximide protein synthesis inhibition counterscreen; active compounds read high
Hit rate of the full screen: of about 300,000 compounds, about 37,000 (12%) were called active. Many of the other results were omitted from the sample, so actives are more common in it than they were.
Write the value in % as a bare number.

*Q* # get_value(readout='max response', item= Cc1ccc(CNC(=O)CSc2nnc3c(n2)[nH]c2ccc(F)cc23)cc1 )
*A* -7.47

*Q* # get_value(readout='max response', item= CCOC(=O)CC1COCCN1C(=O)c1cc(COc2ccc(F)c(F)c2)on1 (stereo not drawn) )
*A* 38.7

*Q* # get_value(readout='max response', item= COC(=O)c1ccc(NC(=O)Nc2ccc(C)cc2)cc1 )
*A* 25.1

*Q* # get_value(readout='max response', item= Cc1ccc(NC(=O)Nc2cccnc2)cc1 )
*A* 24.6

*Q* # get_value(readout='max response', item= C=CCC1(CC=C)CCCN1C(=O)c1cc(COc2ccc(-n3cncn3)cc2)on1 )
*A* 7.87

*Q* # get_value(readout='max response', item= Cc1ccnc(NC(=O)c2ccc(NC(=O)c3ccco3)cc2)c1 )
*A* 36.1

*Q* # get_value(readout='max response', item= CN1CCN(C(=O)c2ccccc2NC(=O)COc2ccccc2Cl)CC1 )
*A* 16.7

*Q* # get_value(readout='max response', item= Cc1ccc(NC(=O)CC(=O)Nc2ccc(C)cc2)cc1 )
*A* -2.02

*Q* # get_value(readout='max response', item= CN(Cc1ccco1)S(=O)(=O)c1nnc(NC(=O)c2ccccc2)s1 )
*A* 26

*Q* # get_value(readout='max response', item= CC(C)(C)C(=O)Nc1ccc(C(=O)N/N=C/c2ccccc2OC(=O)c2ccc(Cl)cc2Cl)cc1 )
*A* 3.79

*Q* # get_value(readout='max response', item= CC(=O)C1=C(O)C(=O)N(c2ccc(Br)cc2)C1c1ccc([N+](=O)[O-])cc1 (stereo not drawn) )
*A* -1.92

*Q* # get_value(readout='max response', item= COc1cc(C(=O)NCc2ccc3c(c2)cc(C)n3C)cc(OC)c1OC )
*A* -6.41

*Q* # get_value(readout='max response', item= Clc1ccc(-c2nc3ccccn3c2CN2CCSCC2)cc1 )
*A* 12.2

*Q* # get_value(readout='max response', item= Cc1ccnc(NC(=O)CCC(=O)N(CC(=O)NCc2ccccc2)Cc2ccco2)c1 )
*A* -2.62

*Q* # get_value(readout='max response', item= Cc1ccc(NC(=O)/C(=C\c2ccccc2)NC(=O)c2ccco2)cc1 )
*A* 0.86

*Q* # get_value(readout='max response', item= CCNS(=O)(=O)c1ccc(CCC(=O)N2CCN(c3ccc(OC)cc3)CC2)cc1 )
*A* 2.4

*Q* # get_value(readout='max response', item= OC(COc1ccc(F)cc1Cl)CN1CCc2ccccc2C1 (stereo not drawn) )
*A* -2.68

*Q* # get_value(readout='max response', item= CN(CC1CCCO1)S(=O)(=O)c1ccc(C(=O)Nc2ccc(F)cc2)cc1 (stereo not drawn) )
*A* 3.84

*Q* # get_value(readout='max response', item= Cc1ccc(NC(=O)NCC(c2cccnc2)N2CCOCC2)cc1 (stereo not drawn) )
*A* -4.08

*Q* # get_value(readout='max response', item= Cc1c(C(=O)N2CCOCC2)[nH]c2ccc(OCc3ccccc3)cc12 )
*A* 0.995

*Q* # get_value(readout='max response', item= CCOC(=O)c1ccccc1C(=O)N1CCOCCOCCOCC1 )
*A* -3.37

*Q* # get_value(readout='max response', item= O=C(c1cc(COc2c(F)cccc2F)on1)N1CCSCC1 )
*A* 54.8

*Q* # get_value(readout='max response', item= O=C(Nc1ccc(O)cc1)c1ccc(NC(=O)c2ccco2)cc1 )
*A* 31.9
